Experiment: Hemolytic activity in human RBC after 1 hr
Format: ADME, cell-based
Condition Summary: erythrocyte

Smiles Structure: CCCCCCCC(=O)N[C@@H](C)/C=C/C(=O)N[C@@H](CCCCN)C(=O)N[C@@H](C)/C=C/C(=O)N[C@@H](CCCCN)C(N)=O
Modifier Sign: =
HD10 / µg/mL: 58
--
Smiles Structure: CCCCCCCCCCCC(=O)N[C@@H](C)/C=C/C(=O)N[C@@H](CCCNC(=N)N)C(=O)N[C@@H](C)/C=C/C(=O)N[C@@H](CCCNC(=N)N)C(N)=O
Modifier Sign: =
HD10 / µg/mL: 22
--
Smiles Structure: CCCCCCCC(=O)N[C@@H](C)/C=C/C(=O)N[C@@H](CCCNC(=N)N)C(=O)N[C@@H](C)/C=C/C(=O)N[C@@H](CCCNC(=N)N)C(N)=O
Modifier Sign: =
HD10 / µg/mL: 52
--
Smiles Structure: CCCCCCCC(=O)N[C@H](/C=C/C(=O)N[C@@H](CCCCN)C(=O)N[C@H](/C=C/C(=O)N[C@@H](CCCCN)C(N)=O)Cc1ccc(O)cc1)Cc1ccc(O)cc1
Modifier Sign: =
HD10 / µg/mL: 54
--
Smiles Structure: CCCCCCCCCCCC(=O)N[C@H](/C=C/C(=O)N[C@@H](CCCCN)C(=O)N[C@H](/C=C/C(=O)N[C@@H](CCCCN)C(N)=O)Cc1ccccc1)Cc1ccccc1
Modifier Sign: <
HD10 / µg/mL: 1.56
--
Smiles Structure: CCCCCCCCCCCC(=O)N[C@H](/C=C/C(=O)N[C@@H](CCCCN)C(=O)N[C@H](/C=C/C(=O)N[C@@H](CCCCN)C(N)=O)Cc1ccc(O)cc1)Cc1ccc(O)cc1
Modifier Sign: =
HD10 / µg/mL: 2.5
--
Smiles Structure: CCCCCCCC(=O)N[C@H](/C=C/C(=O)N[C@@H](CCCCN)C(=O)N[C@H](/C=C/C(=O)N[C@@H](CCCCN)C(N)=O)Cc1ccccc1)Cc1ccccc1
Modifier Sign: =
HD10 / µg/mL: 16
--
Smiles Structure: CCCCCCCCCCCC(=O)N[C@@H](C)/C=C/C(=O)N[C@@H](CCCCN)C(=O)N[C@@H](C)/C=C/C(=O)N[C@@H](CCCCN)C(N)=O
Modifier Sign: =
HD10 / µg/mL: 48

* * *

Test system: Candida albicans
Experiment: Antifungal activity against Candida albicans NCIM 3471 assessed as disruption of cell membrane by atomic force microscopic analysis
Format: functional, organism-based
Calls of active or inactive are those of the source. The rule behind the calls is not given here. Where a SMILES comes first, the peptide text is derived from it. The star is where a group is joined. Octanoyl = CCCCCCCC(=O)*

Compound: CCCCCCCCCCCC(=O)N[C@H](/C=C/C(=O)N[C@@H](CCCCN)C(=O)N[C@H](/C=C/C(=O)N[C@@H](CCCCN)C(N)=O)Cc1ccc(O)cc1)Cc1ccc(O)cc1
Activity: Active
//
Compound: CCCCCCCC(=O)N[C@@H](C)/C=C/C(=O)N[C@@H](CCCNC(=N)N)C(=O)N[C@@H](C)/C=C/C(=O)N[C@@H](CCCNC(=N)N)C(N)=O
Activity: Active
//
Compound: CCCCCCCC(=O)N[C@H](/C=C/C(=O)N[C@@H](CCCCN)C(=O)N[C@H](/C=C/C(=O)N[C@@H](CCCCN)C(N)=O)C(C)C)CC(C)C
Activity: Active
//
Compound: CCCCCCCCCCCC(=O)N[C@@H](C)/C=C/C(=O)N[C@@H](CCCCN)C(=O)N[C@@H](C)/C=C/C(=O)N[C@@H](CCCCN)C(N)=O
Activity: Active
//
Compound: CC(=O)N[C@H](/C=C/C(=O)N[C@@H](CCCCN)C(=O)N[C@H](/C=C/C(=O)N[C@@H](CCCCN)C(N)=O)Cc1ccccc1)Cc1ccccc1
Activity: Active
//
Compound: CCCCCCCC(=O)N[C@H](/C=C/C(=O)N[C@@H](CCCCN)C(=O)N[C@H](/C=C/C(=O)N[C@@H](CCCCN)C(N)=O)Cc1ccccc1)Cc1ccccc1
Activity: Active
//
Compound: CCCCCCCCCCCC(=O)N[C@@H](C)/C=C/C(=O)N[C@@H](CCCNC(=N)N)C(=O)N[C@@H](C)/C=C/C(=O)N[C@@H](CCCNC(=N)N)C(N)=O
Activity: Active
//
Compound: CCCCCCCCCCCC(=O)N[C@H](/C=C/C(=O)N[C@@H](CCCCN)C(=O)N[C@H](/C=C/C(=O)N[C@@H](CCCCN)C(N)=O)Cc1ccccc1)Cc1ccccc1
Activity: Active
//
Compound: CCCCCCCC(=O)N[C@@H](CC(C)C)C(=O)N[C@@H](CCCCN)C(=O)N[C@H](C(=O)N[C@@H](CCCCN)C(N)=O)C(C)C (Octanoyl-LKVK-NH2)
Activity: Active
//
Compound: CCCCCCCC(=O)N[C@@H](C)/C=C/C(=O)N[C@@H](CCCCN)C(=O)N[C@@H](C)/C=C/C(=O)N[C@@H](CCCCN)C(N)=O
Activity: Active
//
Compound: CCCCCCCC(=O)N[C@H](/C=C/C(=O)N[C@@H](CCCCN)C(=O)N[C@H](/C=C/C(=O)N[C@@H](CCCCN)C(N)=O)Cc1ccc(O)cc1)Cc1ccc(O)cc1
Activity: Active

The reported measurements were obtained from ChEMBL document CHEMBL3085676.
